Here, each record is paired with measured hEphB2-SEAP-: absorbance at 450 nm, percentage with respect to hEphA4-SEAP-His as 100% data.
- tested_system: T1, human EphB2 (Homo sapiens, UniProt P29323)
- T1 construct: a protein of the extracellular region of each human Eph receptor fused with the SEAP protein and the His tag; made in house; host or cells: Expi293F cells
- T1 sequence (P29323 19-543 limits assumed): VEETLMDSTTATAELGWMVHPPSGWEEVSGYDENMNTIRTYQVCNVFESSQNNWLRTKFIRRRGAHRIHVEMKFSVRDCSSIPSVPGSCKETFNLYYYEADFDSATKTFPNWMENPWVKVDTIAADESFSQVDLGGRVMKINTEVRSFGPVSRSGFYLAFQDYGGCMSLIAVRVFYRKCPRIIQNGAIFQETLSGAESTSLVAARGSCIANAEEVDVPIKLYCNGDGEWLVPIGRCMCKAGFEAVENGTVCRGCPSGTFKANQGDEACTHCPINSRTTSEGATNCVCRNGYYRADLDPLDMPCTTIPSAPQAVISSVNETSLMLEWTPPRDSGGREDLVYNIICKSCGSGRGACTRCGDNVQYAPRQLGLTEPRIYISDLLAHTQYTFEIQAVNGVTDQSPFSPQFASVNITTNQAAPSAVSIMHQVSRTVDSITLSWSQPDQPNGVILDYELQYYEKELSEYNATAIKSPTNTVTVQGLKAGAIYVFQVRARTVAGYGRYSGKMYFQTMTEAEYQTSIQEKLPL
- test_name: Selectivity ELISA of humanized antibodies for human Eph receptor
- Type: binding
- condition_label: coated protein 1 nM

Consider the following illustrative entries.
molecule	assay_result
160 (antibody, V domains shown, synthetic humanized antibody heavy chain variable region sequence; synthetic humanized antibody light chain variable region sequence) VH: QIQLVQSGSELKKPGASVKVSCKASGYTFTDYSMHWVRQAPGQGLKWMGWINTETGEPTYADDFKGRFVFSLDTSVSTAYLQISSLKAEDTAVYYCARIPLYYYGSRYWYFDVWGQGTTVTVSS VL: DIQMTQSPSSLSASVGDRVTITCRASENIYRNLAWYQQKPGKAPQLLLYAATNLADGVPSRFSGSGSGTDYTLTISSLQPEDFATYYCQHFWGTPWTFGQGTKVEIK	6.2%
133 (antibody, V domains shown, synthetic humanized antibody heavy chain variable region sequence; synthetic humanized antibody light chain variable region sequence) VH: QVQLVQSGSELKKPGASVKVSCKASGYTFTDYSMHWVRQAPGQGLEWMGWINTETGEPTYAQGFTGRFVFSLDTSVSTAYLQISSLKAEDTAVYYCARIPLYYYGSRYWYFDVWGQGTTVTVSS VL: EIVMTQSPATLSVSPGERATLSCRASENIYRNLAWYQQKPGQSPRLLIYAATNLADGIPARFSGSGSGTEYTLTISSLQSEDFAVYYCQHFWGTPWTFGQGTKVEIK	4.6%
155 (antibody, V domains shown, synthetic humanized antibody heavy chain variable region sequence; synthetic humanized antibody light chain variable region sequence) VH: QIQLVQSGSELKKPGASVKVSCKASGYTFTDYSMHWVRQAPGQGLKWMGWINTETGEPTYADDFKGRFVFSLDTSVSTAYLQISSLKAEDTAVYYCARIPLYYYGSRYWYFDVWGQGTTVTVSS VL: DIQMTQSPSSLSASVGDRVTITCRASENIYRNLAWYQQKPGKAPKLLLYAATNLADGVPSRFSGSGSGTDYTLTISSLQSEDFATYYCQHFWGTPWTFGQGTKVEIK	5.5%

Enquiry: Which value of hEphB2-SEAP-: absorbance at 450 nm, percentage with respect to hEphA4-SEAP-His as 100% has been reported for 71 (antibody, V domains shown, synthetic humanized antibody heavy chain variable region sequence; synthetic humanized antibody light chain variable region sequence) VH: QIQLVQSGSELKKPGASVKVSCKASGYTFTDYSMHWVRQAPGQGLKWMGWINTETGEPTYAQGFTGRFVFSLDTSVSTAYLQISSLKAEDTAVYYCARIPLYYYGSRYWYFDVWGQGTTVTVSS VL: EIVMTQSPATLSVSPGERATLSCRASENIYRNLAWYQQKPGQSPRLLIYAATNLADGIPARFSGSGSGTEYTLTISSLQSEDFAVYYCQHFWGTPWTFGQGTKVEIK in the records?
Return: 5.5%
